Each recorded value in this set is attributed to patent US11998539B2.

# experimental system: DGKα (Homo sapiens (Human))
# Sequence (P23743 other isoform, or with tags, fused parts or gaps): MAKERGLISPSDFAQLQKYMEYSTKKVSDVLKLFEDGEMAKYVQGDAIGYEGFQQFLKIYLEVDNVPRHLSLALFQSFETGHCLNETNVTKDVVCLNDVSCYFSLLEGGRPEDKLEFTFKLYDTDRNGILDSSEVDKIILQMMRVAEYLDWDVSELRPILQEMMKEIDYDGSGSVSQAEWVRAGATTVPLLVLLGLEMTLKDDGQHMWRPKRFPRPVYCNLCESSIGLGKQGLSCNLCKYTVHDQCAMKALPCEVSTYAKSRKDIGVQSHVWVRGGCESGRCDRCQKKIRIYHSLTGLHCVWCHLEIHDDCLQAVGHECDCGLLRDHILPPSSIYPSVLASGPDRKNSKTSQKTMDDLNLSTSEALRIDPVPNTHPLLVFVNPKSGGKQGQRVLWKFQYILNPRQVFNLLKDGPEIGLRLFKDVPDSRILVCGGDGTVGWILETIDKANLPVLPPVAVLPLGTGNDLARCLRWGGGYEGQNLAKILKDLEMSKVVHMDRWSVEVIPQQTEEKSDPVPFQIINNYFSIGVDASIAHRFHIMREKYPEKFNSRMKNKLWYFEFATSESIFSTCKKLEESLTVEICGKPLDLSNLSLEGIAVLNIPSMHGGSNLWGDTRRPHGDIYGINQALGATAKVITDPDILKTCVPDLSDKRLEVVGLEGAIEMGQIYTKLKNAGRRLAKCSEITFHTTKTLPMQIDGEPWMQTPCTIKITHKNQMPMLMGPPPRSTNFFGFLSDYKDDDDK
# assay name: Human DGKα kinase activity inhibition assay (ADP-Glo)
# test settings: recombinant full-length human DGKα, 55 μM ATP, 7 μM 1,2-dioleoyl-sn-glycerol, read-out: IC50 values of examples in in vitro human DGKa kinase activity inhibition assays
# Description: Human DGKα Kinase Activity Inhibition Assay Human DGKα inhibitory activity of compounds of the present invention was quantified employing the human DGKα kinase activity assay as described in the following paragraphs. In essence, the enzyme activity was measured by quantification of the adenosine-di-phosphate (ADP) generated as a co-product of the enzyme reaction via the “ADP-Glo™ Kinase Assay” kit from the company Promega. […]
property: log10 IC50 (log10 of the value in nM)
Please be aware that the numbers have been log10-transformed from IC50 in nM.

Examples with their reported log10 IC50 follow.
Cc1ccc2oc(C3CCN(c4c(C(N)=O)c(=O)n(C)c5cc(C)ccc45)CC3)nc2c1 [Example 313]
0.18
Cc1ccc2oc(C3CCN(c4c(C#N)c(=O)n(C)c5cc(O[C@@H]6CCOC6)c(Br)cc45)CC3)nc2c1 [Example 537]
-0.70
Cn1c(=O)c(C#N)c(N2CCC(c3cccc(C(F)F)c3)CC2)c2ccccc21 [Example 87]
0.85

I would be grateful if you could provide log10 IC50 for each of the following entries.
1. Cn1c(=O)c(C(N)=O)c(N2CCC(c3ccn(-c4cccc(Cl)c4)n3)CC2)c2ccccc21 [Example 474]
2. Cn1c(=O)c(C#N)c(N2CCC(c3nc4ccccc4o3)CC2)c2ccc(C(F)(F)F)cc21 [Example 291]

Response:
[0.66, 1.04]

log10 IC50 in this record for Cn1c(=O)c(C#N)c(N2CCC(c3nc4ccccc4o3)CC2)c2cccc(Cl)c21 [Example 162] : 2.13

----------
# experimental system: UniProtKB P23743
# assay name: Human DGKα kinase activity inhibition assay (ADP-Glo)
# test settings: recombinant full-length human DGKα, 55 μM ATP, 7 μM 1,2-dioleoyl-sn-glycerol, read-out: IC50 values of examples in in vitro human DGKa kinase activity inhibition assays
So basically: is IC50 under 3 nM? Then satisfied. Not under? Then not satisfied.

Illustrative cases are given below, each with its answer.
COc1ccc(C2CCN(c3c(C#N)c(=O)n(C)c4ccc(Br)cc34)CC2)cc1 [Example 167]
not satisfied
COCCc1ccc2nc(C3CCN(c4c(C(N)=O)c(=O)n(C)c5ccccc45)CC3)oc2c1 [Example 317]
not satisfied

Query: # TODO verify IC50 < 3 nM strictly for this compound: Cn1c(=O)c(C#N)c(N2CCC(F)(c3nc4ccccc4o3)CC2)c2ccccc21 [Example 389]
Response: not satisfied

Query: Hello, I'm reviewing records and need to know if IC50 of Cn1c(=O)c(C#N)c(N2CCC(c3nc4ccc(Br)cc4o3)CC2)c2ccccc21 [Example 294] is below 3 nM. Could you check?
Response: not satisfied

Query: Take the compound COc1cccc(-c2csc(C3CCN(c4c(C(N)=O)c(=O)n(C)c5ccccc45)CC3)n2)c1 [Example 476] and say whether its IC50 is less than 3 nM.
Response: not satisfied

Query: Field: below-cutoff. Rule: recorded IC50 strictly less than 3 nM. Subject: Cc1ccc(-c2nnc(C3CCN(c4c(C(N)=O)c(=O)n(C)c5ccccc45)CC3)o2)cc1 [Example 462]
Response: not satisfied

Query: API: query returns whether the compound falls strictly under 3 nM in IC50. Query: Cc1ccc2oc(C3CCN(c4c(C#N)c(=O)n(C)c5cc(OC6CCCOC6)ccc45)CC3)nc2c1 (stereo not shown) [Example 414]
Response: satisfied

Query: # TODO verify IC50 < 3 nM strictly for this compound: Cn1c(=O)oc2cc(C3CCN(c4c(C#N)c(=O)n(C)c5ccccc45)CC3)ccc21 [Example 362]
Response: not satisfied

Query: Does the reported IC50 of Cc1ccc2nc(C3CCN(c4c(C#N)c(=O)n(C)c5ccccc45)CC3)oc2c1 [Example 7] stay below 3 nM?
Response: not satisfied

Query: Below 3 nM on IC50? Entry COc1cc2c(cc1Cl)c(N1CCC(c3nc4cc(C)ccc4o3)CC1)c(C#N)c(=O)n2C [Example 566]
Response: satisfied

Query: Field: below-cutoff. Rule: recorded IC50 strictly less than 3 nM. Subject: Cn1c(=O)c(C#N)c(N2CCC(c3nc4ccc(C5COC5)cc4o3)CC2)c2ccccc21 [Example 388]
Response: not satisfied

Query: Determine whether this compound shows IC50 lower than 3 nM (ties excluded): Cn1c(=O)c(C#N)c(N2CCC(c3ccc4c(c3)CC(O)C4)CC2)c2ccccc21 (stereo not shown) [Example 359]
Response: not satisfied

Query: Does Cn1c(=O)c(C(N)=O)c(N2CCC(c3ccc(OC(F)(F)F)cc3)CC2)c2ccccc21 [Example 108] have IC50 strictly under 3 nM?
Response: satisfied

Query: Strictly below 3 nM in IC50? Cc1ccc2oc(C3CCN(c4c(C#N)c(=O)n(C)c5ccc(C#N)cc45)CC3)nc2c1 [Example 403]
Response: satisfied

Query: Is the reported IC50 for Cc1nc2cc(C3CCN(c4c(C#N)c(=O)n(C)c5ccccc45)CC3)ccc2s1 [Example 346] strictly below 3 nM?
Response: not satisfied

----------
# experimental system: DGKα (Homo sapiens (Human))
# assay name: Human DGKα kinase activity inhibition assay (ADP-Glo)
# test settings: recombinant full-length human DGKα, 55 μM ATP, 7 μM 1,2-dioleoyl-sn-glycerol, read-out: IC50 values of examples in in vitro human DGKa kinase activity inhibition assays
Entries whose IC50 is below 4 nM take yes; entries at or above 4 nM take no.

Observe how each entry below is paired with its result.
Cc1ccc2oc(C3(C)CCN(c4c(C#N)c(=O)n(C)c5cc(C6COC6)ccc45)CC3)nc2c1
no
Cn1c(=O)c(C#N)c(N2CCC(c3nc4ccc(Br)cc4s3)CC2)c2ccccc21
no
Cc1ccc2oc(C3CCN(c4c(C(N)=O)c(=O)n(C)c5ccc(C6(C(F)(F)F)CC6)cc45)CC3)nc2c1
no

Query: Quick check: IC50 of `Cc1ccc2c(c1)c(N1CCC(C)(c3nc4ccccc4o3)CC1)c(C#N)c(=O)n2C` under 4 nM?
Response: yes

Query: Hello, I'm reviewing records and need to know if IC50 of `COCCc1ccc2nc(C3CCN(c4c(C#N)c(=O)n(C)c5ccccc45)CC3)oc2c1` is below 4 nM. Could you check?
Response: no

Query: Hello, I'm reviewing records and need to know if IC50 of `Cn1c(=O)c(C(N)=O)c(N2CCC(c3nc(-c4cccnc4)no3)CC2)c2ccccc21` is below 4 nM. Could you check?
Response: no

Query: Is IC50 of `Cc1ccc2oc(C3CCN(c4c(C(N)=O)c(=O)n(C)c5ccc(C)cc45)CC3)nc2c1` strictly below 4 nM?
Response: yes

Query: Identify whether the compound `CC(C)c1ccc2oc(C3CCN(c4c(C#N)c(=O)n(C)c5ccc(Br)cc45)CC3)nc2c1` records IC50 below 4 nM.
Response: no

Query: Bench note: check whether `Cc1ccc2oc(C3CCN(c4c(C#N)c(=O)n(C)c5cc(N(C)CCO)c(C)cc45)CC3)nc2c1` shows IC50 below 4 nM
Response: yes

Query: Problem: For the compound `Cn1c(=O)c(C#N)c(N2CCC(c3ccn(-c4ccc(Cl)cc4)n3)CC2)c2ccccc21` , is IC50 under 4 nM?
Response: no

Query: Consider `COc1ccc2oc(C3CCN(c4c(C#N)c(=O)n(C)c5ccccc45)CC3)nc2c1` . Does its IC50 lie strictly below 4 nM?
Response: no

Query: Field: below-cutoff. Rule: recorded IC50 strictly less than 4 nM. Subject: `Cc1ccc2oc(C3CCN(c4c(C(N)=O)c(=O)n(C)c5cc(OC6CCOCC6)ccc45)CC3)nc2c1`
Response: no

Query: Regarding Cc1ccc2oc(C3CCN(c4c(C#N)c(=O)n(C)c5cc(OCC6CCOC6)c(Cl)cc45)CC3)nc2c1 (racemic) , kindly confirm whether its IC50 is beneath 4 nM.
Response: yes

Query: State whether 4 nM exceeds IC50 recorded for `Cn1c(=O)c(C#N)c(N2CCC(O)(c3cc4ccccc4s3)CC2)c2ccccc21` .
Response: no

Query: A record lists `COc1ccc(-c2noc(C3CCN(c4c(C(N)=O)c(=O)n(C)c5ccccc45)CC3)n2)cc1` . Is its IC50 below 4 nM?
Response: no

Query: IC50 under 4 nM? Item: `COc1ccccc1C1CCN(c2c(C#N)c(=O)n(C)c3ccccc23)CC1`
Response: no

Query: Hello, I'm reviewing records and need to know if IC50 of Cc1ccc2oc(C3CCN(c4c(C(N)=O)c(=O)n(C)c5cc(OC6CCOC6)c(C6(C(F)(F)F)CC6)cc45)CC3)nc2c1 (racemic) is below 4 nM. Could you check?
Response: no

----------
# experimental system: UniProt P23743
# assay name: Human DGKα kinase activity inhibition assay (ADP-Glo)
# test settings: recombinant full-length human DGKα, 55 μM ATP, 7 μM 1,2-dioleoyl-sn-glycerol, read-out: IC50 values of examples in in vitro human DGKa kinase activity inhibition assays
property: IC50 (nM)
Numbers only, in nM.

Give me IC50 for each of these molecules, listed below.
1. Cc1ccc2c(c1)c(N1CCCC(c3nc4ccccc4o3)CC1)c(C(N)=O)c(=O)n2C (stereo not drawn)
2. Cn1c(=O)c(C#N)c(N2CCC(c3nc4ccc(Cl)nc4s3)CC2)c2ccccc21
3. Cn1c(=O)c(C(N)=O)c(N2CCC(c3nc4cc(F)c(F)cc4o3)CC2)c2ccccc21

Response:
1. 4.8
2. 15
3. 2.1
